Target: SIRT1 (Homo sapiens, UniProt Q96EB6)
Sequence (Q96EB6 1-747): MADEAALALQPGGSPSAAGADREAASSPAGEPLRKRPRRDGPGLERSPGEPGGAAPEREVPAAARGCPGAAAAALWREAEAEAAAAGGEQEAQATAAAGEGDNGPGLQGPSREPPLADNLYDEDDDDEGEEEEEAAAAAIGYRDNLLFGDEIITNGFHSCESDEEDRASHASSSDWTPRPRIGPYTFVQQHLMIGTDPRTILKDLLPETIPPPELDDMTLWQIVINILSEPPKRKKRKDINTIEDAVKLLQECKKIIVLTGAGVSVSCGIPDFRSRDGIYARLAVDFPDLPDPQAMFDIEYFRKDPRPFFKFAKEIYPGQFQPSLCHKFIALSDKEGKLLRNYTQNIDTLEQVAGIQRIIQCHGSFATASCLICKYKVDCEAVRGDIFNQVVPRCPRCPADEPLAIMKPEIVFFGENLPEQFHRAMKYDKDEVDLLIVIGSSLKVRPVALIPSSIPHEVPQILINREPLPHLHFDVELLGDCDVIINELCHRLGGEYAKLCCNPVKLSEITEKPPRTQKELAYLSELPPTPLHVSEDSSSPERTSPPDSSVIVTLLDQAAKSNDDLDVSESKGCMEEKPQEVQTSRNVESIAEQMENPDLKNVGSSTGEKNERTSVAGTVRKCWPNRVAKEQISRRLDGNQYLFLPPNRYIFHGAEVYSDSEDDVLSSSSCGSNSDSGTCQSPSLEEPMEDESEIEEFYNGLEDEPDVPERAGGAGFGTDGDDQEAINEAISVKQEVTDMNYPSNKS
Assay: Trp mass spectrometry assay of SIRT1 activity
Format: biochemical
Details: Trp assay; percent maximum fold activation; read-out: Trp % Fold Act
Outcome Measure: Emax

Example entries and their recorded answers appear below.
>>> recorded_value("O=C(Nc1ncccn1)c1cnc2ccc(N3CC[C@H](F)C3)nn12 [Compound 854]")
"< 350%"
>>> recorded_value("O=C(Nc1ccc(F)cn1)c1cnc2ccc(N3CCC(F)(F)CC3)nn12 [Compound 962]")
"< 350%"
>>> recorded_value("Cc1nc2ccc(N3CC[C@H](F)C3)nn2c1C(=O)Nc1cccnc1 [Compound 841]")
"≥ 350%"
>>> recorded_value("O=C(Nc1cncnc1)c1cnc2ccc(N3CC[C@H](F)C3)nn12 [Compound 888]")
"< 350%"
>>> recorded_value("Cc1nccc(C(=O)Nc2cnn3ccc(-c4ccccc4C(F)(F)F)nc23)n1 [Compound 794]")
"< 350%"

Entry under review: O=C(Nc1ccncc1F)c1cnc2ccc(-c3cccc(OC[C@H](O)CO)c3)nn12 [Compound 883] . Reported Emax?
< 350%

Entry under review: N#Cc1ccccc1-c1ccc2ncc(NC(=O)c3cscn3)n2n1 [Compound 332] . Reported Emax?
< 350%

Entry under review: Cc1csc(NC(=O)c2c(C)nn3ccc(-c4ccccc4C(F)(F)F)nc23)n1 [Compound 650] . Reported Emax?
≥ 350%

Where do these numbers come from? They come from patent US9957271B2.
